I'd be grateful if you could share measured SPOT intensity for these entries.
Target: T1, Sla1-3, P32790
T1 sequence (P32790 344-424, looked up): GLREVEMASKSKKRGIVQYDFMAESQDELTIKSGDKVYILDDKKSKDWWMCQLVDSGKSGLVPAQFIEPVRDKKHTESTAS
Assay: SPOT array
Conditions: median of control spots 5475
Please give only the number in your answer, with no unit.

(Q) GET /values?readout=SPOT intensity&item= FYNRTAFQLPGDARV
(A) 5

(Q) GET /values?readout=SPOT intensity&item= RPPRPPPKPLHLRTE
(A) 43

(Q) GET /values?readout=SPOT intensity&item= VTHRLRISIPGITGR
(A) 0

(Q) GET /values?readout=SPOT intensity&item= KFIPSRPAPKPPSSA
(A) 199

(Q) GET /values?readout=SPOT intensity&item= LRWRHKFFLPAIAAI
(A) 24

(Q) GET /values?readout=SPOT intensity&item= ALKQKKIPPPFKPHL
(A) 0

(Q) GET /values?readout=SPOT intensity&item= QPWTDQFEKLEKEVS
(A) 0
